ASSAY_PROCEDURE: A CellTox Green Cytotoxicity Assay to monitor cytotoxicity in HEK293 cells - 16 hour (AID 1224888); also: nearly all actives have a fitted effect of over 35% in size
CONDITION_PARAMETERS: CellTox Green fluorescence; series mostly up to 76.8 µM
Records with an inconclusive call do not appear. The source made the active and inactive calls. Calls follow the shape of the dose curve; as a rule, active = well fitted activation curve with a large enough effect in the repeat runs; inconclusive = weak or mixed curves; inactive = flat fitted curve, though single readings scatter.
// one of active, inactive, no free text

Sample answers from the record:
[[record]]
record_smiles = "Clc1ccc2n[nH]nc2c1"
label = "inactive"

[[record]]
record_smiles = "NNc1nc(-c2ccccc2)cs1"
label = "inactive"

[[record]]
record_smiles = "O=C1CCCc2c1cc1ccc3cccc4ccc2c1c34"
label = "inactive"

[[record]]
record_smiles = "C[C@H]1[C@H]2CC[C@H]3[C@@H]4CC=C5C[C@@H](N(C)C)CC[C@]5(C)[C@H]4CC[C@]23CN1C"
label = "inactive"

[[record]]
record_smiles = "Cc1cccc(S(=O)(=O)O)c1C"
label = "inactive"


Problem: Identify the outcome logged in this assay for the molecule shown: O=c1cccccc1O
Result: inactive

Problem: Identify the outcome logged in this assay for the molecule shown: CCCC(=O)OC[C@@H](OC(=O)CCC)[C@@H](OC(=O)CCC)[C@H](Cn1c2nc(=O)[nH]c(=O)c-2nc2cc(C)c(C)cc21)OC(=O)CCC
Result: active

Problem: Identify the outcome logged in this assay for the molecule shown: COc1cc(-c2nc(NC(=O)c3cc4cc(C)cc(C)c4n3CC(=O)O)sc2CCC2CCCCC2)c(OC)cc1Cl
Result: inactive

* * *

ASSAY_PROCEDURE: qHTS assay to identify small molecule antagonists of the peroxisome proliferator-activated receptor delta (PPARd) signaling pathway - cell viability counter screen (AID 743213); also: nearly all actives have a fitted effect of over 50% in size
CONDITION_PARAMETERS: PPARd-bla HEK293H viability, CellTiter-Glo luminescence, 17 h; series mostly up to 62 µM
Records with an inconclusive call do not appear. Calls of active or inactive are those of the source. The call rests on the fitted dose curve; in most records, active means well fitted cell-killing curve with a large enough effect in the repeat runs; inconclusive means weak or mixed curves; inactive means no such curve, though single readings can be large or run the other way.
// one of Y = active, N = inactive, no free text

[[record]]
compound = "C[C@]12CCC(=O)C=C1CC[C@@H]1[C@@H]2[C@@H](O)C[C@@]2(C)[C@H]1CC[C@]2(O)C(=O)COC(=O)CCC(=O)O"
label = "N"

[[record]]
compound = "Oc1ccc(C2(c3ccc(O)cc3)CC3CC2C2CCCC32)cc1 (stereo not given)"
label = "Y"

[[record]]
compound = "Clc1ccc2n[nH]nc2c1"
label = "N"


Problem: Identify the outcome logged in this assay for the compound shown: Cc1oc(-c2ccccc2)nc1CCC(=O)c1ccc(CC2SC(=O)NC2=O)cc1 (stereo not given)
Result: N

Problem: Identify the outcome logged in this assay for the compound shown: CN1CCC(Nc2ncc3ncnc(Nc4ccc(F)c(Cl)c4)c3n2)CC1
Result: Y

* * *

ASSAY_PROCEDURE: qHTS assay to identify small molecule agonists of the NFkB signaling pathway - cell viability counter screen (AID 1159515); also: nearly all actives have a fitted effect of over 55% in size
CONDITION_PARAMETERS: NFkB-bla ME-180 viability, CellTiter-Glo luminescence, 5 h; series mostly up to 61 µM
Results filed as inconclusive are left out. Calls of active or inactive are those of the source. Calls come from the whole dose curve.
// one of 1.0 (active), 0.0 (inactive), no free text

Sample answers from the record:
[[record]]
molecule = "C=CC(=O)OCC(CO)(COC(=O)C=C)COC(=O)C=C"
label = 0.0

[[record]]
molecule = "CCCCCCCCNC(C)C(O)c1ccc(SC(C)C)cc1 (centres undefined)"
label = 1.0


Problem: Identify the outcome logged in this assay for the molecule shown: CS(=O)(=O)CCNCc1ccc(-c2ccc3ncnc(Nc4ccc(OCc5cccc(F)c5)c(Cl)c4)c3c2)o1
Result: 1.0

Problem: Identify the outcome logged in this assay for the molecule shown: CN(C)CCCOC1(Cc2ccccc2)CCCCCC1
Result: 0.0

Problem: Identify the outcome logged in this assay for the molecule shown: N/C(=N\N=C\c1ccc(Cl)cc1)N/N=C/c1ccc(Cl)cc1
Result: 1.0

Problem: Identify the outcome logged in this assay for the molecule shown: Cc1cc(O)c(Cl)c(C)c1Cl
Result: 1.0

Problem: Identify the outcome logged in this assay for the molecule shown: OCCCCCCCCCCCCBr
Result: 0.0

Problem: Identify the outcome logged in this assay for the molecule shown: Cc1cccc2c1cc1ccc3cccc4ccc2c1c34
Result: 0.0

Problem: Identify the outcome logged in this assay for the molecule shown: COc1ccc(CN2CCN(C(c3ccc(F)cc3)c3ccc(F)cc3)CC2)c(OC)c1OC
Result: 1.0
